Let's look at some compounds and their measured % enzymatic activity of DispersinB (Mean).
tested on: DispersinB; format: biochemical, Aggregatibacter actinomycetemcomitans; settings: 50 mM citrate buffer pH 5.9; salt concentration as in label; control with no salts = 100%
Marks after values point to notes of the source that are not given here.
measured metric: % enzymatic activity of DispersinB (Mean)

- compound smiles: "CC(=O)O.N"
  experimental value: "66* %"
- compound smiles: "O=S(=O)([O-])[O-].[Na+].[Na+]"
  experimental value: "174* %"
- compound smiles: "O=[N+]([O-])[O-].[K+]"
  experimental value: "135* %"
- compound smiles: "[Cl-].[Na+]"
  experimental value: "179* %"
- compound smiles: "[Cl-].[Cl-].[Mg+2]"
  experimental value: "81* %"
- compound smiles: "Cl.N"
  experimental value: "129* %"
- compound smiles: "N.N.O=S(=O)(O)O"
  experimental value: "91%"
- compound smiles: "[Cl-].[Li+]"
  experimental value: "97%"
- compound smiles: "[Cl-].[K+]"
  experimental value: "152* %"
- compound smiles: "O=S(=O)([O-])[O-].[Mg+2]"
  experimental value: "87%"
